- ASSAY_PROTOCOL: blockers of RIG-like receptor reporter activation – cell-based, Sendai virus stimulus, luciferase, 10K MLSCN set, TLR/RLR signaling modifier project, primary screen (AID 602276);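 further: firefly luciferase from ISG56 promoter only with Renilla not read in this screen; 0% = Sendai virus plus DMSO and 100% = medium plus DMSO without virus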
- PARTICULARS: HEK293 RL24 IRF3 luciferase reporter, at 10 µM, stronger effect = higher value
MEASURED_ATTRIBUTE: inhibition (%)
Just the number please, in %, no unit attached.

> print(dat)
                                   compound  measured.attribute  result.number
1  O=S(=O)(c1ccc(S(=O)(=O)N2CCN3CCCC3C2)cc1)N1CCCC1 (stereo unspecified)          inhibition           6.16
2           O=C(O)c1ccc(-c2ccc(O)c(F)c2)cc1          inhibition          -3.64
3  CCOC(=O)c1cnc(SC2CC(=O)N(c3ccc(OC)c(OC)c3)C2=O)nc1N (stereo unspecified)          inhibition          -6.56
4  Cc1ccc2cc(CN(CCN3CCCC3)C(=O)Nc3ccc(F)cc3)c(=O)[nH]c2c1C          inhibition           3.48
5  CCOC(=O)c1ccccc1NC1c2ccccc2C(=O)N1C1CCN(C(=O)OCC)CC1 (stereo unspecified)          inhibition           14.7
6           COc1ccc2nc(NC(=O)c3ccoc3C)sc2c1          inhibition          -30.4

The compound identified as `COCCNS(=O)(=O)c1cc(F)ccc1OC` registered its inhibition at -4.54

The compound identified as CCC1CCc2c(sc3ncnc(N4CCOCC4)c23)C1 (stereo unspecified) registered its inhibition at -6.27

The compound identified as `O=C(O)CCc1ccc(-c2ccc(F)cc2)n1CC(=O)O` registered its inhibition at 10.3

The compound identified as O=C(NCC(c1cccnc1)N1CCN(c2ccc(F)cc2)CC1)c1ccc(F)cc1 (stereo unspecified) registered its inhibition at 1.86

The compound identified as `O=C(NCc1cccnc1)c1ccc2c(c1)OCO2` registered its inhibition at -28.8

The compound identified as `CC1(C)C(=O)Nc2ccccc2N1C(=O)COC(=O)Cn1cnc2ccccc2c1=O` registered its inhibition at 7.38

The compound identified as `Cc1cccc2sc(NC(=O)CN(C)S(=O)(=O)c3cccs3)nc12` registered its inhibition at -1.84

The compound identified as `CCCCN(C)C(=O)c1cn(C)c2ccc(S(=O)(=O)N(C)C)cc2c1=O` registered its inhibition at 6.56

The compound identified as `CCOC(=O)N1CCC(NC(=O)c2cnn3ccccc23)CC1` registered its inhibition at -3.54

###

- ASSAY_PROTOCOL: reduction of polyQ htt aggregates in cells – imaging, exon1htt(103Q)mCFP cells, high-content imaging, primary screen (AID 483);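 further: compound exposure lasted 3 days before fixation; percent of the per-plate median nuclei count of sample wells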
- PARTICULARS: exon1htt(103Q)mCFP cell line, aggregate imaging, at 2 µM; measured here: cell count, toxicity
MEASURED_ATTRIBUTE: nuclei count (%)
Just the number please, in %, no unit attached.

Below: 10 compounds and their reported nuclei count.
> print(dat)
                                    compound  measured.attribute  result.number
 1           CCc1nc2scc(-c3ccccc3)c2c(=O)n1N        nuclei count           98.5
 2               N#CCC(=O)N1CCn2c1nc1ccccc12        nuclei count           94.4
 3            N#Cc1cc2ccc(N3CCOCC3)cc2cc1C#N        nuclei count           76.5
 4          COc1ccc(NC(=O)COc2ccccc2)c(OC)c1        nuclei count            106
 5         c1ccn2c(SCc3ccc4c(c3)OCCO4)nnc2c1        nuclei count           88.9
 6            CC(=O)c1ccc(-c2nc3ccccc3n2C)o1        nuclei count            105
 7                     O=c1c2ccccc2nc2n1CCN2        nuclei count            108
 8  O=C(c1cnn2c(C(F)F)cc(C3CC3)nc12)N1CCOCC1        nuclei count           96.7
 9  COC(=O)c1cccc(NC(=O)CSc2nnc(COc3ccccc3)n2C)c1        nuclei count            101
10  Nc1nc2n(n1)C(c1c(F)cccc1Cl)CC(c1ccc(F)cc1)N2 (configuration not stated)        nuclei count            117

The compound identified as CCOc1ccccc1C1NC(=O)NC(C)=C1C(=O)OC1CCCC1C (configuration not stated) registered its nuclei count at 103

The compound identified as `CCCCCn1c(N2CCN(Cc3ccccc3)CC2)nc2c1c(=O)[nH]c(=O)n2C` registered its nuclei count at 101

The compound identified as `O=C(CN1CCC(c2nc3ccccc3s2)CC1)NCc1cccs1` registered its nuclei count at 87.9

The compound identified as CC1CCCCN1S(=O)(=O)c1ccc(NC(=O)c2cccs2)cc1 (configuration not stated) registered its nuclei count at 86.3

The compound identified as `Cc1occc1-c1nnc(SCC(=O)c2ccc(F)cc2)n1Cc1ccco1` registered its nuclei count at 87.3
